Reference source: ChEMBL document CHEMBL1201862

- Tested on: M19-MEL
- procedure.summary: NCI tumour cell line growth inhibition, 48 h
The source made the active and inactive calls. No stated cut-off is given here; in the data, active = GI50 up to about 1.1 µM and inactive = higher.
Reported GI50 values are given for each entry in this list.

Exercise: Form entry - test system: M19-MEL; read-out: GI50; compound: C#CCN(N=O)C(=O)NC(CCCNC(=O)OCc1ccccc1)C(=O)OCc1ccccc1 (stereo not drawn)
Key: > 100 µM (inactive)

Exercise: Form entry - test system: M19-MEL; read-out: GI50; compound: Cn1c(=O)[nH]c2c(c1=O)C(=O)CN2
Key: > 100 µM (inactive)

Exercise: Form entry - test system: M19-MEL; read-out: GI50; compound: COc1ccc(-c2cc(-c3ccco3)c(C#N)c(=O)n2C2OC(OC(=O)c3ccccc3)C(OC(=O)c3ccccc3)C2OC(=O)c2ccccc2)cc1 (stereo not drawn)
Key: > 100 µM (inactive)

Exercise: Form entry - test system: M19-MEL; read-out: GI50; compound: O=C(COc1ccccc1Cl)N1N=C(c2ccc(Cl)cc2)CC1(O)c1ccccc1 (stereo not drawn)
Key: > 100 µM (inactive)

Exercise: Form entry - test system: M19-MEL; read-out: GI50; compound: CCCN(CCC)C(=O)Cc1c2n(c3ccccc13)CCCc1ccccc1-2
Key: 14.8 µM (inactive)

Exercise: Form entry - test system: M19-MEL; read-out: GI50; compound: CCN(CC)CCNc1ccc2nnn3c4ccc([N+](=O)[O-])cc4c(=O)c1c23
Key: > 20.5 µM (inactive)
